system: T47D human breast cancer cells; assay: T47D Human Breast Cancer Cells Assay (alkaline phosphatase); type: cell-based; details: 24 h with test compound, luminescence
Quantity: IC50

- Compound: "CN(C)c1ccc([C@H]2C[C@@]3(C)[C@@H](CC[C@@]3(O)C#Cc3ccccc3)[C@@H]3OCC4=CC(=O)CCC4=C32)cc1"
  Assay value: "1.38 nM"
- Compound: "CN(C)c1ccc([C@H]2C[C@@]3(C)[C@@H](CC[C@@]3(O)C#Cc3ccc(F)cc3)[C@@H]3OCC4=CC(=O)CCC4=C32)cc1"
  Assay value: "0.269 nM"
- Compound: "CN(C)c1ccc([C@H]2C[C@@]3(C)[C@@H](CC[C@@]3(O)C#Cc3ccc(C#N)cc3)[C@@H]3OCC4=CC(=O)CCC4=C32)cc1"
  Assay value: "3.67 nM"
- Compound: "CN(C)c1ccc([C@H]2C[C@@]3(C)[C@@H](CC[C@@]3(O)C#Cc3ccc(C(F)(F)F)cc3)[C@@H]3OCC4=CC(=O)CCC4=C32)cc1"
  Assay value: "0.748 nM"
- Compound: "CN(C)c1ccc(C2C[C@@]3(C)[C@@H](CC[C@@]3(O)C#Cc3ccccn3)[C@@H]3OCC4=CC(=O)CCC4=C23)cc1 (stereo in doubt)"
  Assay value: "34 nM"
- Compound: "CN(C)c1ccc([C@H]2C[C@@]3(C)[C@@H](CC[C@@]3(O)C#Cc3cccc(Cl)c3)[C@@H]3OCC4=CC(=O)CCC4=C32)cc1"
  Assay value: "12.5 nM"
- Compound: "CN(C)CC#C[C@]1(O)CC[C@H]2[C@@H]3OCC4=CC(=O)CCC4=C3C(c3ccc(N(C)C)cc3)C[C@@]21C (some centres unmarked)"
  Assay value: "> 1000 nM"
- Compound: "CN(C)c1ccc(C2C[C@@]3(C)[C@@H](CC[C@@]3(O)C#CC(C)(C)C)[C@@H]3OCC4=CC(=O)CCC4=C23)cc1 (stereo in doubt)"
  Assay value: "185 nM"
- Compound: "CN(C)c1ccc([C@H]2C[C@@]3(C)[C@@H](CC[C@@]3(O)C#CC3CC3)[C@@H]3OCC4=CC(=O)CCC4=C32)cc1"
  Assay value: "9.55 nM"
- Compound: "CC#C[C@]1(O)CC[C@H]2[C@@H]3OCC4=CC(=O)CCC4=C3[C@@H](c3ccc(N(C)C)cc3)C[C@@]21C"
  Assay value: "5.15 nM"
- Compound: "CN(C)c1ccc([C@H]2C[C@@]3(C)[C@@H](CC[C@@]3(O)C#Cc3cccc(C(F)(F)F)c3)[C@@H]3OCC4=CC(=O)CCC4=C32)cc1"
  Assay value: "2.65 nM"

* * *

test system: T47D human breast cancer cells; assay: T47D Human Breast Cancer Cells Assay (alkaline phosphatase); format: cell-based; conditions: 24 h with test compound, luminescence
log10(IC50) overview
Quantity: log10(IC50) (log10 of the value in nM)

- Molecule: "Cc1ccccc1C#C[C@]1(O)CC[C@H]2[C@@H]3OCC4=CC(=O)CCC4=C3[C@@H](c3ccc(N(C)C)cc3)C[C@@]21C"
  log10(IC50): 0.76
- Molecule: "CN(C)c1ccc(C2C[C@@]3(C)[C@@H](CC[C@@]3(O)C#Cc3ccc(C(C)(C)C)cc3)[C@@H]3OCC4=CC(=O)CCC4=C23)cc1 (stereo in doubt)"
  log10(IC50): 1.29
- Molecule: "CN(C)c1ccc([C@H]2C[C@@]3(C)[C@@H](CC[C@@]3(O)C#Cc3cc(F)cc(F)c3)[C@@H]3OCC4=CC(=O)CCC4=C32)cc1"
  log10(IC50): -0.04
- Molecule: "Cc1cccc(C#C[C@]2(O)CC[C@H]3[C@@H]4OCC5=CC(=O)CCC5=C4[C@@H](c4ccc(N(C)C)cc4)C[C@@]32C)c1"
  log10(IC50): 0.45
- Molecule: "CN(C)c1ccc([C@H]2C[C@@]3(C)[C@@H](CC[C@@]3(O)C#Cc3ccccc3F)[C@@H]3OCC4=CC(=O)CCC4=C32)cc1"
  log10(IC50): 0.16
- Molecule: "CN(C)c1ccc([C@H]2C[C@@]3(C)[C@@H](CC[C@@]3(O)C#Cc3ccccc3Cl)[C@@H]3OCC4=CC(=O)CCC4=C32)cc1"
  log10(IC50): 0.03
